System: MDR1
method-summary: in vitro
experimental-context: dog, MDCK-MDR1, pH 7.4
Answer each item with its documented efflux ratio at 120 min, 5 μM.
Numbers only.

Q: # get_value(readout= efflux ratio at 120 min, 5 μM, system= MDR1) for CN(c1ccc(-c2cc3ccn(C)c(=O)c3s2)nn1)[C@@H]1C[C@H]2CC[C@H](N2)[C@@H]1F (single isomer, unassigned) [Compound 67A]
Result: 90

Q: Form entry - test system: MDR1; read-out: efflux ratio at 120 min, 5 μM; compound: CN(c1ccc(-c2cnc(C#N)cc2O)nn1)[C@@H]1C[C@H]2CC[C@H](N2)[C@@H]1F (single isomer, unassigned) [Compound 71A]
Result: 7

Q: GET /values?readout=efflux ratio at 120 min, 5 μM&system=MDR1&item= CN(c1ccc(-c2cc3c(=O)n(C)cnc3cc2O)nn1)[C@@H]1C[C@H]2CC[C@@H]([C@@H]1F)N2C [Compound 102A]
Result: 41

Go through the list and state efflux ratio at 120 min, 5 μM for each entry.
1. CN(c1ccc(-c2ccc(Oc3cnn(C)c3)cc2O)nn1)[C@@H]1C[C@H]2CC[C@H](N2)[C@@H]1F (single isomer, unassigned) [Compound 91A]
2. CN(c1ccc(-c2cnc(C#N)cc2O)nn1)[C@H]1C[C@@H]2CC[C@@H](N2)[C@H]1F (single isomer, unassigned) [Compound 71B]
3. CN(c1ccc(-c2cc(F)c(-n3ccnn3)cc2O)nn1)[C@@H]1C[C@H]2CC[C@@H]([C@@H]1F)N2C [Compound 103A]

Result:
[15, 4, 4]

---

Test system: MDR1 (P-gp)
method-summary: in vitro
experimental-context: dog, MDCK-MDR1, pH 7.4
Binary call on Papp B→A at 120 min, 5 μM: yes (1) from 50 ×10⁻⁶ cm/s upward, no (0) beneath that.

Reference set (6 entries):
Q: Form field: Papp B→A at 120 min, 5 μM at least 50 ×10⁻⁶ cm/s? Entry: O=c1c2cc(O)c(-c3ccc(N(C4CC4)[C@@H]4C[C@H]5CC[C@H](N5)[C@@H]4F)nn3)cc2ncn1CC(F)(F)F (single isomer, unassigned) [Compound 60A]
Result: yes (1)

Q: Determine whether measured Papp B→A at 120 min, 5 μM meets or exceeds 50 ×10⁻⁶ cm/s for CN1[C@H]2CC[C@@H]1[C@@H](F)[C@@H](N(c1ccc(-c3cc4oc(C(=O)N5CCC5)cc4cc3O)nn1)C1CC1)C2 (single isomer, unassigned) [Compound 92B]
Result: yes (1)

Q: Papp B→A at 120 min, 5 μM >= 50 ×10⁻⁶ cm/s for Cc1nc2cc(O)c(-c3ccc(N(C)[C@@H]4C[C@H]5CC[C@H](N5)C4F)nn3)cc2o1 (stereo in doubt) [Compound 40A] ?
Result: yes (1)

Q: Decide: is the reported value of Papp B→A at 120 min, 5 μM for CN(c1ccc(-c2cc3ncn(CC(F)(F)F)c(=O)c3cc2O)nn1)[C@H]1C[C@@H]2CC(F)(F)[C@H](C1)N2C (single isomer, unassigned) [Compound 110B] equal to or greater than 50 ×10⁻⁶ cm/s?
Result: no (0)

Q: Evaluate CN1[C@@H]2CC[C@H]1[C@H](F)[C@H](N(c1ccc(-c3cc4ncn(CC(F)(F)F)c(=O)c4cc3O)nn1)C1CC1)C2 (single isomer, unassigned) [Compound 111A] : Papp B→A at 120 min, 5 μM at minimum 50 ×10⁻⁶ cm/s?
Result: no (0)

Q: For this compound, is measured Papp B→A at 120 min, 5 μM 50 ×10⁻⁶ cm/s or higher? CN(c1ccc(-c2cnc(C#N)cc2O)nn1)[C@@H]1C[C@H]2CC[C@H](N2)[C@@H]1F (single isomer, unassigned) [Compound 71A]
Result: no (0)

Next, consider the following compound.
Q: In plain terms: is recorded Papp B→A at 120 min, 5 μM at least 50 ×10⁻⁶ cm/s for Cc1nc2cc(-c3ccc(N(C)[C@@H]4C[C@H]5CC[C@@H]([C@@H]4F)N5C)nn3)c(O)cc2c(=O)n1CC(F)(F)F (single isomer, unassigned) [Compound 130A] ?
Result: yes (1)

---

System: MDR1
method-summary: Blood-brain-barrier (BBB) penetration potential via MDCK-MDR1 permeability assay
experimental-context: dog, MDCK-MDR1, pH 7.4, MDCK-MDR1: Efflux, efflux ratio
quantity-kind: efflux ratio at 120 min, 5 μM
Answers are plain numbers.

// solved cases for efflux ratio at 120 min, 5 μM follow
Q: Item under review: CN(c1ccc(-c2ccc(-c3cnn(C)c3)cc2O)nn1)[C@H]1C[C@@H]2CCC[C@@H](N2)[C@@H]1F [Compound 14B] . Reported efflux ratio at 120 min, 5 μM?
Result: 11

Q: What does the data say about its efflux ratio at 120 min, 5 μM? Entry: CN(c1ccc(-c2cc3oc(=O)n(C)c3cc2O)nn1)[C@H]1C[C@@H]2CC[C@@H](N2)[C@H]1F (single isomer, unassigned) [Compound 79B]
Result: 16

As a next step, examine the compound that follows.
Q: Given the compound CN(c1ccc(-c2cc3c(=O)n(C)cnc3cc2O)nn1)[C@H]1C[C@@H]2CC[C@@H](N2)[C@H]1F [Compound 85B] , what is its reported efflux ratio at 120 min, 5 μM?
Result: 68

---

Test system: mHTT protein in GM04724 (CAG 70/20) Huntington's disease patient lymphoblast cells
method-summary: mHTT protein assay, 2B7-MW1 assay via Mesoscale Discovery (MSD)
Format: cell-based, human
experimental-context: GM04724 Huntington's disease patient lymphoblasts
pEC50: −log10 of the molar value.
Assign pEC50 to each entry below.

Q: Name the recorded pEC50 for CN(c1ccc(-c2cc(F)c(-c3ccoc(=O)c3)cc2O)nn1)[C@@H]1C[C@H]2CC[C@H](N2)[C@@H]1F [Compound 17A] .
Result: 7.82 to 11.00

Q: Could you share which pEC50 value was measured for CNC(=O)c1cc(O)c(-c2ccc(N(C)[C@H]3C[C@@H]4CC[C@@H](N4)[C@H]3F)nn2)cc1F [Compound 47B] ?
Result: 7.00 to 7.29

Q: Fill in: pEC50 of CN(c1ccc(-c2ccc(-c3nnco3)cc2O)nn1)[C@H]1C[C@@H]2CC[C@@H](N2)[C@H]1F [Compound 44B] is ___
Result: 7.82 to 11.00

Parameters: items (list). Returns: pEC50 for each item.
1. CN(c1ccc(-c2cc3cccnc3cc2O)nn1)[C@@H]1C[C@H]2CC[C@H](N2)[C@@H]1F [Compound 74A]
2. CN(c1ccc(-c2cc(F)c(-n3ccnn3)cc2O)nn1)[C@@H]1C[C@H]2CC[C@H](N2)[C@@H]1F [Compound 52A]
3. CN(c1ccc(-c2cc3occc(=O)c3cc2O)nn1)[C@@H]1C[C@H]2CC[C@H](N2)[C@@H]1F [Compound 43A]
4. CN(c1ccc(-c2cc3c(=O)n(C)ccc3cc2O)nn1)[C@H]1C[C@@H]2CC[C@@H](N2)[C@H]1F [Compound 83B]
5. CN(c1ccc(-c2ccc(-c3cn[nH]c3)cc2O)nn1)[C@@H]1C[C@H]2CC[C@H](N2)[C@@H]1F (single isomer, unassigned) [Compound 42A]
6. CN(c1ccc(-c2ccc(-c3cnc(C#N)cn3)cc2O)nn1)[C@H]1C[C@@H]2CCC[C@@H](N2)[C@H]1F [Compound 28B]
7. CN(c1ccc(-c2cc3ncn(CC(F)(F)F)c(=O)c3cc2O)nn1)[C@H]1C[C@@H]2CC[C@@H](N2)[C@H]1F [Compound 81B]
8. Cc1cnc(-c2ccc(-c3ccc(N(C)[C@@H]4C[C@H]5CCC[C@H](N5)[C@@H]4F)nn3)c(O)c2)o1 [Compound 16A]

Result:
7.30 to 7.80
7.30 to 7.80
7.30 to 7.80
7.82 to 11.00
7.82 to 11.00
7.30 to 7.80
7.00 to 7.29
7.30 to 7.80

---

What Papp B→A at 120 min, 5 μM was measured for each of the following?
System: MDR1 (P-gp)
method-summary: Blood-brain-barrier (BBB) penetration potential via MDCK-MDR1 permeability assay
experimental-context: dog, MDCK-MDR1, pH 7.4, MDCK-MDR1: Papp B-A, B-A direction
One number for each entry, in ×10⁻⁶ cm/s.

Q: Reported Papp B→A at 120 min, 5 μM, compound CN(c1ccc(-c2cc3cnn(C)c3cc2O)nn1)[C@H]1C[C@@H]2CC[C@@H](N2)[C@H]1F [Compound 76B] : ____
Result: 60.3

Q: Would you kindly share the measured Papp B→A at 120 min, 5 μM for CN(c1ccc(-c2cc3ncn(C)c(=O)c3cc2O)nn1)[C@H]1C[C@@H]2CC[C@@H](N2)[C@H]1F [Compound 51B] ?
Result: 50.3

Q: Give its Papp B→A at 120 min, 5 μM value. Item: CN(c1ccc(-c2ccc(-c3cnn(C(F)F)c3)cc2O)nn1)[C@@H]1C[C@H]2CC[C@H](N2)[C@@H]1F [Compound 20A]
Result: 39.9

Q: Entry under review: CN(c1ccc(-c2cc3ccncc3cc2O)nn1)[C@@H]1C[C@H]2CC[C@H](N2)[C@@H]1F (single isomer, unassigned) [Compound 87A] . Reported Papp B→A at 120 min, 5 μM?
Result: 43.1

Next, consider the following compound.
Q: Need Papp B→A at 120 min, 5 μM, item CN(c1ccc(-c2cc(F)c(-c3ccn(C)c(=O)c3)cc2O)nn1)[C@@H]1C[C@H]2CC[C@H](N2)[C@@H]1F
Result: 49.3

Where these numbers come from: patent US12509460B2
